molecular target: Neutrophil elastase (Homo sapiens, UniProt P08246); experiment: Inhibitory activity against Human Leukocyte Elastase
Sequence (P08246 whole entry): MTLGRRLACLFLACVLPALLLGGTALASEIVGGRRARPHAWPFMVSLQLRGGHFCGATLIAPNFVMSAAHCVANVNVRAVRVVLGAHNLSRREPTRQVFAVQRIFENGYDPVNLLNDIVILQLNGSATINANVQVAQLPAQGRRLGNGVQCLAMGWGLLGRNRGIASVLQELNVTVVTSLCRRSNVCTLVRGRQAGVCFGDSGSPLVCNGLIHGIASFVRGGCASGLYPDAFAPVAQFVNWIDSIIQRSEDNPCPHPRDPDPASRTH
readout.name: pIC50
Bear in mind: pIC50 is minus log10 of a mol/L concentration; give just that figure.

So, `CO[C@H]1C(=O)N2C(C(=O)N3CCCC3)=C(CSc3nc(=O)c(=O)[nH]n3C)CS(=O)(=O)[C@H]12` ? Its pIC50 was 5.70

====

Neutrophil elastase (Homo sapiens) (UniProt P08246) data, read-out k obs / 1
Sequence (P08246 whole entry): as above
Give a bare numeral; the unit M⁻¹ s⁻¹ is implied.

So, `CO[C@H]1C(=O)N2C(C(=O)N(C)CC(=O)OC(C)(C)C)=C(CSc3nc(=O)c(=O)[nH]n3C)CS(=O)(=O)[C@H]12` ? Its k obs / 1 was 19300

So, `CO[C@H]1C(=O)N2C(C(=O)N(C)CC(=O)O)=C(CSc3nc(=O)c(=O)[nH]n3C)CS(=O)(=O)[C@H]12` ? Its k obs / 1 was 6200

So, `CO[C@H]1C(=O)N2C(C(=O)N3CCCC3)=C(CSc3nc(=O)c(=O)[nH]n3C)CS(=O)(=O)[C@H]12` ? Its k obs / 1 was 13400

So, `CO[C@H]1C(=O)N2C(C(=O)N(C)CC(=O)O)=C(COC(C)=O)CS(=O)(=O)[C@H]12` ? Its k obs / 1 was 300

So, `CO[C@H]1C(=O)N2C(C(=O)N(C)Cc3ccccc3)=C(COC(=O)c3ccc(C(=O)O)cc3)CS(=O)(=O)[C@H]12` ? Its k obs / 1 was 10000

So, `CO[C@H]1C(=O)N2C(C(=O)N(C)CC(=O)OC(C)(C)C)=C(CSc3nnnn3CC(=O)O)CS(=O)(=O)[C@H]12` ? Its k obs / 1 was 20500

So, CO[C@H]1C(=O)N2C(C(=O)N(C)CC(=O)O)=C(COC(C)=O)C(C)S(=O)(=O)[C@H]12 (some centres not stated) ? Its k obs / 1 was 1400
